# System: XF498
# procedure-summary: NCI tumour cell line growth inhibition, 48 h
Active and inactive are the calls of the source. Cut-off read from the data, not from the text of the source: active = GI50 up to about 1.1 µM and inactive = higher.
experimental-readout: GI50

[
  {
    "compound": "CC(O)c1ccc(C(O)/C(=N\\NC(=O)c2ccncc2)c2nc3ccc([N+](=O)[O-])cc3nc2O)cc1 (stereo unspecified)",
    "result": "> 100 µM (inactive)"
  },
  {
    "compound": "N/C(=N\\O)N/N=C\\c1c2ccccc2c(Cl)c2ccccc12",
    "result": "16.8 µM (inactive)"
  },
  {
    "compound": "CC1(C)OB(O)OC1(C)C",
    "result": "> 100 µM (inactive)"
  },
  {
    "compound": "C/C(CC(=O)NCCc1ccccc1)=N\\NS(=O)(=O)c1ccc(C)cc1",
    "result": "> 100 µM (inactive)"
  },
  {
    "compound": "CC(=O)NC(CCCCNC(=O)OCc1ccccc1)C(=O)NCc1ccccc1 (stereo unspecified)",
    "result": "> 100 µM (inactive)"
  },
  {
    "compound": "O=C(/C=C/c1ccccc1F)C(c1ccccc1)c1ccccc1",
    "result": "1.99 µM (inactive)"
  },
  {
    "compound": "CC(=O)Nc1ccc(C2=N/C(=C\\c3ccc(Cl)c(Cl)c3)C(=O)O2)cc1",
    "result": "57.5 µM (inactive)"
  },
  {
    "compound": "O=C1CCCCC1CN1CCCC1 (stereo unspecified)",
    "result": "> 100 µM (inactive)"
  },
  {
    "compound": "CCSC(SCC)c1cc2c(cc1Br)OCO2",
    "result": "20.4 µM (inactive)"
  },
  {
    "compound": "COc1ccc(C(=O)O/N=C2/CCC/C2=C\\c2ccccc2)cc1",
    "result": "> 100 µM (inactive)"
  }
]

Now let's try a different one.
GI50 recorded for this compound, CCCCCCCCCCCCCCCCOCC(COP(=O)([O-])OCC[N+](C)(C)C)OCCCCCCCCCCCCCCCC (stereo unspecified) , is > 100 µM (inactive)

###

# Tested on: HCC 2998
# procedure-summary: NCI tumour cell line growth inhibition, 48 h
Calls of active or inactive are those of the source. Rule as the data show it: active = GI50 up to about 1.1 µM and inactive = higher.
Entries and their measured GI50 follow.

[
  {
    "molecule": "O=C1Nc2ccccc2/C1=N/NC(=S)NCc1ccccn1",
    "experimental-readout": "GI50",
    "result": "0.975 µM (active)"
  },
  {
    "molecule": "Cc1cc2nc3c(C)c4ccccc4c(C)n3c2cc1C",
    "experimental-readout": "GI50",
    "result": "3.33 µM (inactive)"
  },
  {
    "molecule": "CCCCCCCCCCCCCCCCOCC(COP(=O)([O-])OCC[N+](C)(C)C)OCCCCCCCCCCCCCCCC (centres undefined)",
    "experimental-readout": "GI50",
    "result": "> 100 µM (inactive)"
  },
  {
    "molecule": "NC(=O)c1ncn(C2OC(CO)C(O)C2O)c1NC=O (centres undefined)",
    "experimental-readout": "GI50",
    "result": "> 100 µM (inactive)"
  },
  {
    "molecule": "CCOC(=O)c1ccc(C(=O)/C(C#N)=C2\\CCCN2C)[nH]1",
    "experimental-readout": "GI50",
    "result": "> 100 µM (inactive)"
  }
]

Just so you know, measured GI50 for COC(=O)C(CCC(=O)CCl)N1C(=O)c2ccccc2C1=O (centres undefined) came out at 8.18 µM (inactive)

###

# System: UACC-257
# procedure-summary: NCI tumour cell line growth inhibition, 48 h
Calls of active or inactive are those of the source. Rule as the data show it: active = GI50 up to about 1.1 µM and inactive = higher.
GI50: recorded values

# example entries with known answers
[
  {
    "compound": "CC(=O)C1C(=O)C(=O)N(c2ccc(Br)cc2)C1=O (stereo not drawn)",
    "GI50": "> 100 µM (inactive)"
  },
  {
    "compound": "C/C=C1/CN2CCC34C(=C(C(=O)OC)C1CC23)Nc1ccc(O)cc14 (stereo not drawn)",
    "GI50": "> 100 µM (inactive)"
  },
  {
    "compound": "CC1(C)Cc2ccccc2C(C)(Cl)C(=O)N1 (stereo not drawn)",
    "GI50": "> 10 µM (inactive)"
  },
  {
    "compound": "Cc1cc2nc3c(C)c4ccccc4c(C)n3c2cc1C",
    "GI50": "3.36 µM (inactive)"
  },
  {
    "compound": "CCOC(=O)c1cn2c(n1)sc1cccc(C)c12",
    "GI50": "> 100 µM (inactive)"
  }
]

Could you now look at the following compound, please?
Value of measured GI50 for the entry Nc1nc(SCC(=O)c2ccc(Br)cc2)c2nc[nH]c2n1 : 30.5 µM (inactive)

###

The reader will find reported GI50 values listed item by item below.
# Tested on: Hs-578T
# procedure-summary: NCI tumour cell line growth inhibition, 48 h
The source made the active and inactive calls. Rule as the data show it: active = GI50 up to about 1.1 µM and inactive = higher. Where a SMILES comes first, the peptide text is derived from it. [ ]: non-standard residue; d: D form. ξ: configuration not given here. ξThz(5,5-Me2) = CC1(C)SCNC1C(=O)O

Record excerpt, results attached:
[
  {
    "compound": "NC(=O)c1ncn(C2OC(CO)C(O)C2O)c1NC=O (stereo not drawn)",
    "GI50": "> 100 µM (inactive)"
  },
  {
    "compound": "Cc1cc(O)no1",
    "GI50": "> 100 µM (inactive)"
  },
  {
    "compound": "N#C/C(=C\\c1ccc2[nH]ccc2c1)C(=O)NCCCCNC(=O)/C(C#N)=C/c1ccc2[nH]ccc2c1",
    "GI50": "> 10 µM (inactive)"
  },
  {
    "compound": "CSCC[C@H](NC(=O)[C@H](CC(C)C)NC(=O)[C@H](Cc1c[nH]cn1)NC(=O)CNC(=O)C1N(C(=O)[C@@H](C)NC(=O)[C@H](Cc2c[nH]c3ccccc23)NC(=O)[C@H](CCC(N)=O)NC(=O)[C@@H](N)CC(N)=O)CSC1(C)C)C(N)=O (stereo partly drawn) (H-NQW[dA][ξThz(5,5-Me2)]GHLM-NH2)",
    "GI50": "> 25 µM (inactive)"
  }
]

Data point: CC(=O)Nn1cnc(C(=N)C#N)c1N ; GI50 = > 100 µM (inactive)

Field GI50 (entry CCCCCCCCCCCCCCCC(=O)OC1C(O)C(O)C(O)C(O)C12CO2 (stereo not drawn) ) reads 31.4 µM (inactive)

Note to self: GI50 recorded for CC(NC(=O)c1c(O)[nH]c(=S)[nH]c1=O)c1ccc([N+](=O)[O-])cc1 (stereo not drawn) was > 100 µM (inactive)

The recorded GI50 for entry COc1cc(/N=N/N(C)C)c(C(C)c2c3cc(OC)c(OC)cc3cc[n+]2C)cc1OC (stereo not drawn) equals 63.5 µM (inactive)

###

# Test system: MDA-MB-435
# procedure-summary: NCI tumour cell line growth inhibition, 48 h
The source made the active and inactive calls. No stated cut-off is given here; in the data, active = GI50 up to about 1.1 µM and inactive = higher.
Pick one: 1 for active, 0 for inactive

// below: answered compounds
[
  {
    "compound": "COc1cc(Nc2nnc3n2S(=O)(=O)c2cc(C)c(Cl)cc2S3)cc(OC)c1",
    "class": 0
  },
  {
    "compound": "COC1OC(Cc2nnc(C)o2)C(OCc2ccccc2)C(OCc2ccccc2)C1OCc1ccccc1 (stereo not given)",
    "class": 0
  },
  {
    "compound": "CCOC(=O)/C(=C/Nc1c(C)n(C)n(-c2ccccc2)c1=O)C(C)=O",
    "class": 0
  },
  {
    "compound": "COc1cc(/N=N/N(C)C)c(C(C)c2c3cc(OC)c(OC)cc3cc[n+]2C)cc1OC (stereo not given)",
    "class": 0
  },
  {
    "compound": "COc1cc(C2c3cc4c(cc3OC(Nc3ccc(C(=O)O)cc3)C2C)OCO4)cc(OC)c1OC (stereo not given)",
    "class": 1
  },
  {
    "compound": "N#Cc1c(-c2ccc(Cl)cc2)c2c(n(C3OC(CO)C(O)C(O)C3O)c1=S)CCCC2 (stereo not given)",
    "class": 0
  }
]

Record lookup: outcome of this test for CCOC1=C(c2ccccc2)N2CCCCC2O1 (stereo not given) ?
0

Assay outcome for CN/N=C(/C=C/c1ccccc1)C(C)C : what was it?
0

Assay outcome for CN(N)/N=N/c1[nH]cnc1[N+](=O)[O-] : what was it?
0

In this assay, the call recorded for O=c1[nH]c2ccc(CC(=S)N3CCOCC3)cc2s1 was what?
0

###

# System: U-251
# procedure-summary: NCI tumour cell line growth inhibition, 48 h
The source made the active and inactive calls. Rule as the data show it: active = GI50 up to about 1.1 µM and inactive = higher.
A correct response names exactly one class from TRUE (active), FALSE (inactive)

Check out these entries, answers already filled in.
[
  {
    "molecule": "Fc1cccc(F)c1C1SCc2nc3ccc(Cl)cc3n21 (stereo not given)",
    "experimental-system": "U-251",
    "class": "FALSE"
  },
  {
    "molecule": "OC1CSc2nc3ccccc3n2C1 (stereo not given)",
    "experimental-system": "U-251",
    "class": "FALSE"
  },
  {
    "molecule": "C=C1CC(OC)(C(O)C(=O)N[C@H]2OCO[C@H]3C2O[C@H](C[C@@H](CO)OC)C(C)(C)C3OC)O[C@H](C)[C@@H]1C (stereo not given in full)",
    "experimental-system": "U-251",
    "class": "TRUE"
  },
  {
    "molecule": "C=C(Nc1nc2ccc(C)cc2s1)C(=O)C(CC)C(=O)C(CC)CC1C(=O)NC(=O)NC1=O (stereo not given)",
    "experimental-system": "U-251",
    "class": "FALSE"
  }
]

Please indicate how the test categorized CC1(C)Cc2ccccc2C(C)(Cl)C(=O)N1 (stereo not given) .
FALSE

How was CN(C)CCNC(=O)c1cc(-c2nccn2C)nc2ccccc12 classified in this test?
FALSE

Short answer needed: outcome of this test for CC(=O)c1c(N=[N+]=[N-])c2cccc3c2n(c1=O)CCC3 ?
FALSE

Hi, do you know how C/C=C(/C)C(=O)O[C@H]1C[C@@H]2[C@@H](O)c3occ(C)c3C[C@]2(C)[C@@H](C)C1 came out in this test?
FALSE

Please state the recorded outcome for this molecule: O=C(c1ccc(Cl)cc1)N1N=C(c2ccc(Cl)cc2)CC1(O)c1cc(F)c(Cl)cc1Cl (stereo not given)
FALSE

Could you check what this test reported for CCOP(=O)(OCC)C(Nc1ccc(F)cc1)c1ccccc1 (stereo not given) ?
FALSE
